Source: patent US9694401B2

// PFC concentration in groundwater over soil slurry, 30 MIN lookup, one value per entry
assay: Bench scale soil treatment (2400 ppmV O3), groundwater over soil slurry; type: physicochemical; conditions: 2400 ppmV O3, 10% peroxide, 30 MIN
assay_readout: PFC concentration in groundwater over soil slurry, 30 MIN

- compound: "O=S(=O)(O)C(F)(F)C(F)(F)C(F)(F)C(F)(F)C(F)(F)C(F)(F)F [PFHxS, perfluorohexane sulfonate]"
  experimental_value: 87
- compound: "O=C(O)C(F)(F)C(F)(F)C(F)(F)C(F)(F)C(F)(F)C(F)(F)C(F)(F)F [PFOA, perfluorooctanoic acid]"
  experimental_value: 22
- compound: "O=C(O)C(F)(F)C(F)(F)C(F)(F)C(F)(F)F [PFPeA, perfluoropentanoic acid]"
  experimental_value: 13
- compound: "O=C(O)C(F)(F)C(F)(F)C(F)(F)C(F)(F)C(F)(F)F [PFHxA, perfluorohexanoic acid]"
  experimental_value: 75
- compound: "O=S(=O)(O)C(F)(F)C(F)(F)C(F)(F)C(F)(F)C(F)(F)C(F)(F)C(F)(F)C(F)(F)F [PFOS, perfluorooctane sulfonate]"
  experimental_value: 340

----------
Assay: Bench scale soil treatment (2400 ppmV O3), groundwater over soil slurry
Assay type: physicochemical
Settings: 2400 ppmV O3, 10% peroxide, start to 120 MIN
Procedure: On one foam fire-fighting site, samples of groundwater from monitoring well 1 (MW1) and soil samples between MW1 and monitoring well 3 (MW3) were shipped to the laboratory in coolers with blue ice packing to maintain the temperature at less than 4.4° C. (40° F.). Two sets of tests were conducted, groundwater and soil treatment. For soil samples, 1000 cm^3 of soil was mixed together and then separated into four 250 cm^3 aliquots. The first was submitted as background (start) condition. […]
// % REMOVAL in groundwater over soil slurry lookup, one value per entry
assay_readout: % REMOVAL in groundwater over soil slurry

- molecule: "O=S(=O)(O)C(F)(F)C(F)(F)C(F)(F)C(F)(F)C(F)(F)C(F)(F)F [PFHxS, perfluorohexane sulfonate]"
  experimental_value: "97.4%"
- molecule: "O=C(O)C(F)(F)C(F)(F)C(F)(F)C(F)(F)C(F)(F)C(F)(F)C(F)(F)F [PFOA, perfluorooctanoic acid]"
  experimental_value: "91.2%"
- molecule: "O=C(O)C(F)(F)C(F)(F)C(F)(F)C(F)(F)C(F)(F)F [PFHxA, perfluorohexanoic acid]"
  experimental_value: "91.5%"
- molecule: "O=C(O)C(F)(F)C(F)(F)C(F)(F)C(F)(F)F [PFPeA, perfluoropentanoic acid]"
  experimental_value: "92.9%"
- molecule: "O=S(=O)(O)C(F)(F)C(F)(F)C(F)(F)C(F)(F)C(F)(F)C(F)(F)C(F)(F)C(F)(F)F [PFOS, perfluorooctane sulfonate]"
  experimental_value: "89.8%"
